Reported MFI values for the following binders.
SUBJECT OF TEST: T1, human LILRB4 (human, UniProt Q8NHJ6 22-448)
T1 construct: whole, on cells; also called hLILRB4
ASSAY METHOD TEXT: FACS, 293F-hLILRB4 cells
All answers are understood in MFI, so give the number only.

Sample records with MFI:
BINDER	MFI [MFI]
42-C8-A12-F3-D11 (antibody, V domains shown, mouse monoclonal hybridoma antibody) VH: EVHLVESGGDLVKPGGSLKLSCAASGFTFSSHGMSWVRQTPDKRLEWVATISSGGIYTYHPDSVKGRFSISRDNAKKTLYLQMSSLKSEDTGIYYCTRGQVGNWYFDVWGAGTTVTVSS VL: DIVITQSPAIMSASPGEKVTINCSASSSVSYMHWFQQTPGTSPKLWIYSTSNLASGVPARFSGSGSGTFYSLTISRMEAEDAATYYCQQRSSYPLTFGAGTKLELK	1290
36-F4-H1-D9 (antibody, V domains shown, mouse monoclonal hybridoma antibody) VH: EVKLLESGGGLVQPGGSLKLSCAASGFDFSRYWMIWVRQAPEKGLEWIGEINPDSSTINYTPSLKDKFIISRDNAKNTLYLQMSKVRSEDTALYYCARPYYRYDVGYFDVWGAGTTVTVSS VL: DIVMTQAPKVLLVSAGDRVTISCKASQSVSNAVVWYQQKPGQSPKLLIFYASNRYTGVPDRFTGSGYGTDFTFSISTVQAEDLAVYFCQQDYSSPWTFGGGTKLEIK	898

Shift focus to the following entry.
Entry 48-E11-H7-B5 (antibody, V domains shown, mouse monoclonal hybridoma antibody) VH: EVQLVESGGGLVKPGGSLKLSCAASGFTFSSYAMSWVRQTPEKRLEWVASITIGDDTYYPDSVKGRFTISRDHAKNILYLQVSSLRSEDTAMYSCARGVNSYGSSYRYFDVWGAGTTVTVSS VL: DIVMTQSHKFMSTSVGDRVSITCKASQDVSTAVAWYQQKPGQSPKLLIYWASTRHTGVPDRFTGSGSGTDYTLTISSVQAEDLALYYCQQHYSIPFTFGAGTKLEK : reported MFI = ?
2760
